# System: SK-MEL-28 melanoma
# PROTOCOL NOTES: NCI tumour cell line growth inhibition, 48 h
Kindly state GI50 for each of the entries shown.

Take a look at these entries with their results.
| MOLECULE | REPORTED |
| --- | --- |
| N#C[Se]CCN1C(=O)c2ccccc2C1=O | 1.8 µM |
| FC(F)(F)c1cccc(CNC2CCN(CCc3ccccc3)CC2)c1 | 16 µM |
| COc1cc(/C=C/c2cc(/C=C/c3ccc(O)c(OC)c3)n(C(=O)Nc3ccc(C)cc3)n2)ccc1O | 0.797 µM |
| O=C(O)CSc1cc(NS(=O)(=O)c2ccc(Br)cc2)c2ccccc2c1O | 14.5 µM |

Quick batch: GI50 for everything below.
1. COc1nc(N)nc2nc[nH]c12
2. O=C(/C=C(\[O-])c1ccccc1)CCCCCCC(=O)/C=C(\[O-])c1ccccc1.O=C(/C=C(\[O-])c1ccccc1)CCCCCCC(=O)/C=C(\[O-])c1ccccc1.O=C(/C=C(\[O-])c1ccccc1)CCCCCCC(=O)/C=C(\[O-])c1ccccc1.[Y+3].[Y+3]

> 1000 µM
> 50 µM

====

# System: ACHN renal
# PROTOCOL NOTES: NCI tumour cell line growth inhibition, 48 h
Give TGI for every item shown.

| COMPOUND | REPORTED |
| --- | --- |
| O=C1/C(=C/c2ccc(Br)s2)NC(=S)N1CN1CCCCC1 | > 100 µM |
| COC(=O)c1sc(=S)sc1SCc1cccc(CSc2sc(=S)sc2C(=O)OC)c1 | > 100 µM |
| CN(C)c1ccc(/C=c2/sc3nc(=O)c(-c4ccccc4NC(=O)C(F)(F)F)nn3c2=O)cc1 | > 100 µM |
| CC1C(OS(=O)(=O)c2ccc3[nH]c(=S)sc3c2)CC2C3(C)CCC2(C(C)C(=O)O)C(O)C13 (stereo not given) | 31.8 µM |

Now for the compound whose TGI we want.
Tell me the measured TGI of "CC(C)C(=O)Cc1ccc2ccccc2n1" , please.
> 100 µM

====

# Tested on: NCI-H226 lung
# PROTOCOL NOTES: NCI tumour cell line growth inhibition, 48 h
RESULT TYPE: TGI (µM)
One number for each entry, in µM.

| MOLECULE | REPORTED |
| --- | --- |
| COc1ccc(-n2c(=O)c3ccccc3n(Cc3ccc(C(=O)NO)cc3)c2=O)cc1 | 3.75 |

// next entry
Reported TGI, molecule "Cc1cccc(Oc2ccc(Nc3ncnc4ccc(NC(=O)CN(C)C)cc34)cc2Cl)c1" : ____
28.3

====

# System: IGROV1 ovarian
# PROTOCOL NOTES: NCI tumour cell line growth inhibition, 48 h; in the data active = GI50 below about 0.43 µM; inactive = the rest
Choose one outcome from this list and give only that: active, inactive

Sample answers from the record:
| COMPOUND | GROUP |
| --- | --- |
| CCOC(=O)C#Cc1c(C(=O)OCC)nnn1[C@@H]1O[C@H](COC)[C@@H](OC)[C@H]1OC | inactive |
| O=C1[C@H](Cc2ccc(O)cc2)N2C(=O)CCN(C(=O)NCc3ccccc3)[C@H]2CN1Cc1cccc2ccccc12 | inactive |
| O=[N+]([O-])c1ccc(N/N=C\c2cc(Br)ccc2O)nc1 | inactive |
| COc1ccc([C@@H]2[C@@H](Oc3ccccc3)C(=O)N2c2cc(OC)c(OC)c(OC)c2)cc1F | active |
| OC[C@H]1C[C@](O)(c2ccc(F)cc2)[C@@H](c2ccc(F)cc2)O1 | inactive |

# next compound below
Call for entry "Nc1cc(C(F)(F)F)c(-c2nc(N3CCOCC3)nc(N3CCOCC3)n2)cn1" :
active
